# SUBJECT_OF_TEST: Fes(h) (Homo sapiens, UniProt P07332)
# Sequence (P07332 whole entry): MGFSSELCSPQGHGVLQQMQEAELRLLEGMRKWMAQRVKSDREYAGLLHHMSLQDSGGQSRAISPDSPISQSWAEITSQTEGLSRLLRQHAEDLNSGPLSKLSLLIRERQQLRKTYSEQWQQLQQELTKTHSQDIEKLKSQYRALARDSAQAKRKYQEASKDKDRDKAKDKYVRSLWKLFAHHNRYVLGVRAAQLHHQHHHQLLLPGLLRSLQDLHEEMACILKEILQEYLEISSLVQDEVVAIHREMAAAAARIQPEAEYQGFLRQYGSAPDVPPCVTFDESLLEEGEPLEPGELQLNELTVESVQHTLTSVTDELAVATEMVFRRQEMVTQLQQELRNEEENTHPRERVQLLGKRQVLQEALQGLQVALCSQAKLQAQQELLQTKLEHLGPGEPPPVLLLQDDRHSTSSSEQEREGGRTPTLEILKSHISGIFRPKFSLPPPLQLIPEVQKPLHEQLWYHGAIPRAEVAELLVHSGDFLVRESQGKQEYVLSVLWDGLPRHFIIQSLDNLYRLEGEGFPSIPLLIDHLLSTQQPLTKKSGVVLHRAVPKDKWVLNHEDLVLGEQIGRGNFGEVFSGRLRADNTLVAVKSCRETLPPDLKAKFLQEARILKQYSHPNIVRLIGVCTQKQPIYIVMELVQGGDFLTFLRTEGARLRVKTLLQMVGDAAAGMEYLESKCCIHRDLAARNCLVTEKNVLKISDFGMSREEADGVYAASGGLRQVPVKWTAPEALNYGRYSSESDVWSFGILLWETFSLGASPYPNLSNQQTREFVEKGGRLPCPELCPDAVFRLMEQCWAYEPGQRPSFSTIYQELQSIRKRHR
# RUN_DESCRIPTION: Kinase Profiling Assay
# Assay type: biochemical
# CONDITION_SET: 100 μM peptide
The reader will find reported Fes(h) % activity values listed item by item below.
Respond with the bare value in %.

Examples with their reported Fes(h) % activity follow.
Prompt: Fill in reported Fes(h) % activity for this entry: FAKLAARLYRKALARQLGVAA [MMI-0300]
Completion: 20

Prompt: Fill in reported Fes(h) % activity for this entry: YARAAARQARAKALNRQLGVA (Mammalian) [MMI-0200]
Completion: 74

Prompt: Fill in reported Fes(h) % activity for this entry: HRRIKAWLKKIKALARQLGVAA (Mammalian) [MMI-0500]
Completion: 23

Moving on to another sequence below.
Prompt: Fill in reported Fes(h) % activity for this entry: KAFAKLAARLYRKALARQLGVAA [MMI-0400]
Completion: 16

* * *

The reader will find reported PhKγ2(h) % activity values listed item by item below.
# SUBJECT_OF_TEST: PhKγ2(h) (Homo sapiens)
# Sequence (P15735 1-406): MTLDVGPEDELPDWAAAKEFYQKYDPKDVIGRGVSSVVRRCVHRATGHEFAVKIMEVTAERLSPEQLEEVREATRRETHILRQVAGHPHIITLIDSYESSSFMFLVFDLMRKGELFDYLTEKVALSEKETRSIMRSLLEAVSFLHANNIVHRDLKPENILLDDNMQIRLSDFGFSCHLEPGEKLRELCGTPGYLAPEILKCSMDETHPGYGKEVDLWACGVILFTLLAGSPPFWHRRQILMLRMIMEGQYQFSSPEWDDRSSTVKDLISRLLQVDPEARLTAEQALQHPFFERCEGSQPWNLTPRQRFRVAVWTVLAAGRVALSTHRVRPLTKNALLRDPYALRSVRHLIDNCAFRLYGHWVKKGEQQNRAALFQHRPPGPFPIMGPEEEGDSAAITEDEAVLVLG
# RUN_DESCRIPTION: Kinase Profiling Assay
# Format: biochemical
# CONDITION_SET: 100 μM peptide
Respond with the bare value in %.

Prompt: Look up and report PhKγ2(h) % activity, with PhKγ2(h) (Homo sapiens) as system, for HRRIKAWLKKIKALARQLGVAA (Mammalian) [MMI-0500]
Completion: 16

* * *

The reader will find reported TBK1(h) % activity values listed item by item below.
# SUBJECT_OF_TEST: TBK1(h) (Homo sapiens, UniProt Q9UHD2)
# Sequence (Q9UHD2 1-729): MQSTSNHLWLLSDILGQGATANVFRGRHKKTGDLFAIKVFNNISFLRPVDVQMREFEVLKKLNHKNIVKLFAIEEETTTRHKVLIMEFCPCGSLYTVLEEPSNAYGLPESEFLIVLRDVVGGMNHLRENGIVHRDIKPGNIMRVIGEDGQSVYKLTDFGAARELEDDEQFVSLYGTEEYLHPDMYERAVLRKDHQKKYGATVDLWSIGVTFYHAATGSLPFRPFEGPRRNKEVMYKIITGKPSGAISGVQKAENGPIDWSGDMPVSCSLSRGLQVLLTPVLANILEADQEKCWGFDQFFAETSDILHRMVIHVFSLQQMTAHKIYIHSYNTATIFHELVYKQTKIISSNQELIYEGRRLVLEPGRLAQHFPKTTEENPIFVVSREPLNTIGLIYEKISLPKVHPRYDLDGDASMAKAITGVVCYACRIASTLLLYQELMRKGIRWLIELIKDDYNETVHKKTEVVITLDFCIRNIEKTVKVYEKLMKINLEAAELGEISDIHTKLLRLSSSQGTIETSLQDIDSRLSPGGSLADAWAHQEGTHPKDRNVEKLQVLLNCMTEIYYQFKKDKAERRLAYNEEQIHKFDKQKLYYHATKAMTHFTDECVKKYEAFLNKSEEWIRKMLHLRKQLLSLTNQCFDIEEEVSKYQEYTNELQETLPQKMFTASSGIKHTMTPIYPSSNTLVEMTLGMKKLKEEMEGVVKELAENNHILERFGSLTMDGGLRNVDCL
# RUN_DESCRIPTION: Kinase Profiling Assay
# Assay type: biochemical
# CONDITION_SET: 100 μM peptide
Respond with the bare value in %.

Examples with their reported TBK1(h) % activity follow.
Prompt: Fill in reported TBK1(h) % activity for this entry: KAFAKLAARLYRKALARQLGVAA [MMI-0400]
Completion: 39

Prompt: Fill in reported TBK1(h) % activity for this entry: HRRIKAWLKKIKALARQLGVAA (Mammalian) [MMI-0500]
Completion: 16

Prompt: Fill in reported TBK1(h) % activity for this entry: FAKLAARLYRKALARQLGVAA [MMI-0300]
Completion: 37

Moving on to another sequence below.
Prompt: Fill in reported TBK1(h) % activity for this entry: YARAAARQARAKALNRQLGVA (Mammalian) [MMI-0200]
Completion: 98
